Just for reference, patent US12064516B2 is where these values come from.

ASSAY PROTOCOL: Pharmacokinetics of compound I-1 in the dog by intravenous, oral gavage and oral capsule routes
Assay type: in vivo, beagle dogs
PROTOCOL CONDITIONS: male, beagle, dog, plasma, po, 10 mg/kg, Oral Gavage 0.5% Methylcellulose 10 mg/kg; Subj2
REPORTED METRIC: AUC(0-inf) (ng·h/mL)
One number for each entry, in ng·h/mL.

Prompt: State its AUC(0-inf) for this molecule: CC(C)(O)c1nc2ccccc2cc1N
Completion: 10100

###

ASSAY PROTOCOL: Pharmacokinetics of compound I-1 in the dog by intravenous, oral gavage and oral capsule routes
Type: in vivo, beagle dogs
PROTOCOL CONDITIONS: male, beagle, dog, plasma, oral, 7.2 mg/kg, 100 mg Capsule, average dose 7.2 mg/kg; Average
REPORTED METRIC: Tmax (h)
Answers are plain numbers, in h.

Prompt: State its Tmax for this molecule: CC(C)(O)c1nc2ccccc2cc1N
Completion: 2.37

###

ASSAY PROTOCOL: Pharmacokinetic comparison of ADX-102 (reproxalap) and compound I-1 in rats
Format: in vivo, Sprague-Dawley rats
PROTOCOL CONDITIONS: Sprague-Dawley, in vivo; SD Rat; oral gavage 50 mg/kg; 0.5% MC
REPORTED METRIC: Cmax (ng/mL)
Give bare numbers, in ng/mL.

Prompt: State its Cmax for this compound: CC(C)(O)c1nc2ccccc2cc1N
Completion: 4990

###

ASSAY PROTOCOL: Phase 1 clinical trial, multiple ascending dose (MAD) pharmacokinetics
Format: in vivo, human
PROTOCOL CONDITIONS: human, in vivo, po, 50 mg, oral 50 mg BID; Day 10; read-out: Mean t1/2 (converted)
REPORTED METRIC: half-life (h)
One number for each entry, in h.

Prompt: State its half-life for this molecule: CC(C)(O)c1nc2ccccc2cc1N
Completion: 5.25

###

ASSAY PROTOCOL: Pharmacokinetics of compound I-1 in the dog by intravenous, oral gavage and oral capsule routes
Type: in vivo, beagle dogs
PROTOCOL CONDITIONS: male, beagle, dog, plasma, po, 7.2 mg/kg, 100 mg Capsule, average dose 7.2 mg/kg; Subj1
REPORTED METRIC: half-life (h)
One number for each entry, in h.

Prompt: State its half-life for this compound: CC(C)(O)c1nc2ccccc2cc1N [I-1]
Completion: 1.38

###

ASSAY PROTOCOL: Pharmacokinetics of compound I-1 in the dog by intravenous, oral gavage and oral capsule routes
Format: in vivo, beagle dogs
PROTOCOL CONDITIONS: male, beagle, dog, plasma, iv, 3 mg/kg, Intravenous - 3 mg/kg; Subj2; read-out: Vss
REPORTED METRIC: Vd

Prompt: State its Vd for this compound: CC(C)(O)c1nc2ccccc2cc1N [I-1]
Completion: 1.4 L/kg

###

ASSAY PROTOCOL: Pharmacokinetics of compound I-1 in the dog by intravenous, oral gavage and oral capsule routes
Format: in vivo, beagle dogs
PROTOCOL CONDITIONS: male, beagle, dog, plasma, oral, 7 mg/kg, Group 3: PO Capsule 7 mg/kg; 0.25 h; Subject 1; read-out: Concentration at time point
REPORTED METRIC: concentration at 0.25 h
Please don't drop the unit; write it after the number.

Prompt: State its concentration at 0.25 h for this molecule: CC(C)(O)c1nc2ccccc2cc1N
Completion: 0 ng/mL
